The measured values listed here are drawn from patent US8252935B2.

- targetOrSystem: γ-secretase (Homo sapiens, UniProt P49768)
- protocolText: Screening for γ-secretase-modulating activity in SKNBE2 cells carrying APP 695 wild type (assay of Citron et al 1997)
- Format: cell-based
- condition: SKNBE2, @ 1 uM; SKNBE2 cells carrying the APP 695 wild type
- Method: Screening was carried out using SKNBE2 cells carrying the APP 695—wild type, grown in DMEM/NUT-mix F12 (HAM) provided by Gibco (cat no. 31330-38) containing 5% Serum/Fe supplemented with 1% non-essential amino acids. Cells were grown to near confluency. The screening was performed using the assay as described in Citron et al (1997) Nature Medicine 3: 67.
observable: inhibition at 1 µM (%)

a. CC(C)C[C@H](C(=O)O)c1cc(-c2ccc(C(F)(F)F)cc2)cc([C@H]2CC[C@@H](C(F)(F)F)NC2)c1 (single isomer, unassigned)
b. CC(C)CC(C(=O)O)c1cc(-c2ccc(C(F)(F)F)cc2)cc(C2CCNCC2)c1 (stereo not shown)
Query: // which entry reports the smaller inhibition at 1 µM, a or b ? Please identify the chosen entry by its label.
Result: b
